System: TK-1 cells
Experiment: TK-1 cells in PM1 and PM2 plates, with or without 0.5 mM sodium pyruvate
Type: cell-based, mouse
Conditions: in the presence of 0.5 mM sodium pyruvate
EXPERIMENTAL_ENDPOINT: response of TK-1 cells

Solved entries (count: 5):
- COMPOUND: "NCCC[C@H](N)C(=O)O [L-ornithine]"
  response of TK-1 cells: "lost responses"
- COMPOUND: "O=C1CC[C@@H](C(=O)O)N1 [L-pyroglutamic acid]"
  response of TK-1 cells: "gained responses"
- COMPOUND: "O=C(O)CCCCCCCCC(=O)O [sebacic acid]"
  response of TK-1 cells: "gained responses"
- COMPOUND: "N[C@@H](Cc1ccccc1)C(=O)O [L-phenylalanine]"
  response of TK-1 cells: "gained responses"
- COMPOUND: "CO[C@@H]1OC[C@@H](O)[C@H](O)[C@H]1O [β-methyl xyloside]"
  response of TK-1 cells: "gained responses"

Consider the record given below.
For the compound N[C@@H](CCO)C(=O)O [L-homoserine] , what response of TK-1 cells is on record?
lost responses

Hello, the source for this data is patent US9274101B2, in case you need it.
